System: E. coli TESEC Mtb Asd
ASSAY SUMMARY: growth (OD600 after 10 h); higher = more growth (less inhibition)
CONDITIONS: arabinose induction (level): High; compound 0.1 mM; raw OD600 reference: median of DMSO wells 0.331, cell-free background 0.041
Structures can show the parent of a compound that is named as a salt.
ASSAY READOUT: growth
Would you mind answering with just the numeric figure?

Incoming: // growth lookup, key: CC[C@H]1OC(=O)[C@H](C)[C@@H](O[C@H]2C[C@@](C)(OC)[C@@H](O)[C@H](C)O2)[C@H](C)[C@@H](O[C@@H]2O[C@H](C)C[C@H](N(C)C)[C@H]2O)[C@](C)(O)C[C@@H](C)C(=O)[C@H](C)[C@@H](O)[C@]1(C)O
Outgoing: 0.0563

Incoming: What does the record list as growth for CC(C)[C@H]1CC[C@H](C(=O)N[C@H](Cc2ccccc2)C(=O)O)CC1 [Nateglinide] ?
Outgoing: 0.229

Incoming: Given the compound CC1(C)O[C@@H]2C[C@H]3[C@@H]4CCC5=CC(=O)C=C[C@]5(C)[C@H]4[C@@H](O)C[C@]3(C)[C@]2(C(=O)CO)O1 [Desonide] , what is its reported growth?
Outgoing: 0.208

Incoming: Requested field: growth. Item: CC(C(=O)O)c1cccc(Oc2ccccc2)c1 (stereo not given) [Fenoprofen calcium salt dihydrate]
Outgoing: 0.361

Incoming: Give the measured growth of COc1ccc(/C=C/C(=O)Nc2ccccc2C(=O)O)cc1OC .
Outgoing: 0.218

Incoming: Form field: reported growth of CCN(CC)CCNC(=O)c1cc(Br)c(N)cc1OC [Bromopride]
Outgoing: 0.467

Incoming: Look up growth: C[C@H](N[C@@H](CCc1ccccc1)C(=O)O)C(=O)N1CCC[C@H]1C(=O)O [Enalaprilat dihydrate]
Outgoing: 0.259

Incoming: Which growth value belongs to CS(=O)(=O)Nc1ccc([N+](=O)[O-])cc1Oc1ccccc1 [Nimesulide] ?
Outgoing: 0.272

Incoming: Please give the measured growth for this compound: CC1(C)NC(=O)N(c2ccc([N+](=O)[O-])c(C(F)(F)F)c2)C1=O [Nilutamide]
Outgoing: 0.281

Incoming: Given the entry CC1(C)S[C@@H]2[C@H](NC(=O)[C@H](NC(=O)N3CCNC3=O)c3ccccc3)C(=O)N2[C@H]1C(=O)O [Azlocillin sodium salt] , report its measured growth.
Outgoing: 0.31

----------
Test system: E. coli TESEC Mtb Alr
ASSAY SUMMARY: growth (OD600 after 10 h); higher = more growth (less inhibition)
CONDITIONS: arabinose 1000 nM; compound 0.1 mM; raw OD600 reference: median of DMSO wells 0.294, cell-free background 0.041
Where a name gives a salt, the structure may show the parent alone.
Please provide measured growth for the entries that follow.
The reply should be a number, written without any unit.

Incoming: Which value of growth has been reported for O=c1n(CCCN2CCN(c3cccc(Cl)c3)CC2)nc2ccccn12 [Trazodone hydrochloride] in the records?
Outgoing: 0.24

Incoming: Look up growth for this molecule: NC(=O)c1ccc[n+]([C@@H]2O[C@H](COP(=O)([O-])OP(=O)(O)OC[C@H]3O[C@@H](n4cnc5c(N)ncnc54)[C@H](O)[C@@H]3O)[C@@H](O)[C@H]2O)c1 [Nadide]
Outgoing: 0.363

Incoming: Consider the molecule O=C(O)/C=C/c1ccc(Cn2ccnc2)cc1 [Ozagrel hydrochloride] and give its measured growth.
Outgoing: 0.268
